Reference source for all entries: patent US12161650B2

assay: Phase 1b study in RYR1-Related Myopathy patients, plasma pharmacokinetics; type: in vivo, human (RYR1-Related Myopathy patients); details: human, plasma, po, 120 mg, 120 mg oral daily for 28 days, Day 28, n 3, arithmetic mean
quantity.measured: Tmax at 28 days
Answer as a quantity: numeral, then unit.

In: What measured Tmax at 28 days goes with COc1ccc2c(c1)CN(Cc1ccc(C(=O)O)cc1)CCS2.O=C(O)/C=C/C(=O)O [Compound I] ?
Out: 4.67 h

----------
assay: Phase 1b study in RYR1-Related Myopathy patients, plasma pharmacokinetics; type: in vivo, human (RYR1-Related Myopathy patients); conditions: human, plasma, po, 120 mg, 120 mg oral daily for 28 days, Day 28, n 3, geometric mean; read-out: AUC0-tau
quantity.measured: AUC

In: What measured AUC goes with COc1ccc2c(c1)CN(Cc1ccc(C(=O)O)cc1)CCS2.O=C(O)/C=C/C(=O)O [Compound I] ?
Out: ~271 µg·h/mL
